The reported numbers originate from ChEMBL document CHEMBL1132937.

pKi: −log10 of the molar value.
Dear all, this message contains pKi results, target or system Matrix metalloproteinase-9 (Homo sapiens, UniProt P14780).
ENDPOINT NAME: pKi

{"columns": ["CHEMICAL STRING", "TARGET OR TEST SYSTEM", "RECORDED VALUE"],
 "data": [
  ["CC(C)(C)OC(=O)Nc1cccc(S(=O)(=O)N(CC(=O)NO)Cc2ccc([N+](=O)[O-])cc2)c1", "Matrix metalloproteinase-9 (Homo sapiens, UniProt P14780)", 7.85],
  ["CN(C)S(=O)(=O)N(CC(=O)NO)Cc1ccc([N+](=O)[O-])cc1", "Matrix metalloproteinase-9 (Homo sapiens, UniProt P14780)", 7.37],
  ["Cc1ccc(S(=O)(=O)NC(=O)Nc2cccc(S(=O)(=O)N(CC(=O)NO)Cc3ccc([N+](=O)[O-])cc3)c2)cc1", "Matrix metalloproteinase-9 (Homo sapiens, UniProt P14780)", 8.51],
  ["O=C(O)CN(Cc1ccc([N+](=O)[O-])cc1)S(=O)(=O)c1ccc(NC(=O)NS(=O)(=O)c2ccc(Cl)cc2)cc1", "Matrix metalloproteinase-9 (Homo sapiens, UniProt P14780)", 7.44],
  ["O=C(CN(Cc1ccc([N+](=O)[O-])cc1)S(=O)(=O)c1ccc(C(=O)O)cc1)NO", "Matrix metalloproteinase-9 (Homo sapiens, UniProt P14780)", 8.55],
  ["O=C(CN(Cc1ccc([N+](=O)[O-])cc1)S(=O)(=O)c1cc(Cl)ccc1Cl)NO", "Matrix metalloproteinase-9 (Homo sapiens, UniProt P14780)", 7.77],
  ["O=C(CN(Cc1ccc([N+](=O)[O-])cc1)S(=O)(=O)c1ccc(NC(=O)NS(=O)(=O)c2ccccc2)cc1)NO", "Matrix metalloproteinase-9 (Homo sapiens, UniProt P14780)", 9.05],
  ["Cc1cc(C)c(S(=O)(=O)N(CC(=O)NO)Cc2ccc([N+](=O)[O-])cc2)c(C)c1", "Matrix metalloproteinase-9 (Homo sapiens, UniProt P14780)", 7.41],
  ["O=C(CN(Cc1ccc([N+](=O)[O-])cc1)S(=O)(=O)c1ccc(F)cc1)NO", "Matrix metalloproteinase-9 (Homo sapiens, UniProt P14780)", 7.85],
  ["O=C(CN(Cc1ccc([N+](=O)[O-])cc1)C(=O)Nc1cccc2ccccc12)NO", "Matrix metalloproteinase-9 (Homo sapiens, UniProt P14780)", 7.48],
  ["Cc1ccc(S(=O)(=O)NC(=O)Nc2cccc(S(=O)(=O)N(CC(=O)O)Cc3ccc([N+](=O)[O-])cc3)c2)cc1", "Matrix metalloproteinase-9 (Homo sapiens, UniProt P14780)", 7.68],
  ["CS(=O)(=O)N(CC(=O)NO)Cc1ccc([N+](=O)[O-])cc1", "Matrix metalloproteinase-9 (Homo sapiens, UniProt P14780)", 7.52],
  ["O=C(CN(Cc1ccc([N+](=O)[O-])cc1)S(=O)(=O)c1ccc(I)cc1)NO", "Matrix metalloproteinase-9 (Homo sapiens, UniProt P14780)", 7.80],
  ["COc1ccc(S(=O)(=O)N(CC(=O)NO)Cc2ccc([N+](=O)[O-])cc2)cc1NC(=O)OC(C)(C)C", "Matrix metalloproteinase-9 (Homo sapiens, UniProt P14780)", 8.15],
  ["O=C(CN(Cc1ccc([N+](=O)[O-])cc1)C(=O)NS(=O)(=O)c1ccc(Cl)cc1)NO", "Matrix metalloproteinase-9 (Homo sapiens, UniProt P14780)", 8.30],
  ["CN(C)c1cccc2c(S(=O)(=O)N(CC(=O)NO)Cc3ccc([N+](=O)[O-])cc3)cccc12", "Matrix metalloproteinase-9 (Homo sapiens, UniProt P14780)", 7.28],
  ["O=C(CN(Cc1ccc([N+](=O)[O-])cc1)S(=O)(=O)c1cccc(NC(=O)NS(=O)(=O)c2ccccc2)c1)NO", "Matrix metalloproteinase-9 (Homo sapiens, UniProt P14780)", 8.89],
  ["Cc1ccccc1S(=O)(=O)NC(=O)Nc1cccc(S(=O)(=O)N(CC(=O)NO)Cc2ccc([N+](=O)[O-])cc2)c1", "Matrix metalloproteinase-9 (Homo sapiens, UniProt P14780)", 8.52],
  ["Cc1ccccc1S(=O)(=O)NC(=O)Nc1ccc(S(=O)(=O)N(CC(=O)NO)Cc2ccc([N+](=O)[O-])cc2)cc1", "Matrix metalloproteinase-9 (Homo sapiens, UniProt P14780)", 9.15],
  ["O=C(O)CN(Cc1ccc([N+](=O)[O-])cc1)S(=O)(=O)c1ccc(NC(=O)NS(=O)(=O)c2ccccc2)cc1", "Matrix metalloproteinase-9 (Homo sapiens, UniProt P14780)", 7.68],
  ["O=C(CN(Cc1ccc([N+](=O)[O-])cc1)S(=O)(=O)c1ccc([N+](=O)[O-])c(Cl)c1)NO", "Matrix metalloproteinase-9 (Homo sapiens, UniProt P14780)", 8.15],
  ["O=C(CN(Cc1ccc([N+](=O)[O-])cc1)S(=O)(=O)c1ccccc1[N+](=O)[O-])NO", "Matrix metalloproteinase-9 (Homo sapiens, UniProt P14780)", 7.85],
  ["CC(=O)Nc1ccc(S(=O)(=O)N(CC(=O)NO)Cc2ccc([N+](=O)[O-])cc2)cc1", "Matrix metalloproteinase-9 (Homo sapiens, UniProt P14780)", 7.92],
  ["O=C(CN(Cc1ccc([N+](=O)[O-])cc1)S(=O)(=O)c1cccc(C(=O)O)c1)NO", "Matrix metalloproteinase-9 (Homo sapiens, UniProt P14780)", 8.60],
  ["O=C(CN(Cc1ccc([N+](=O)[O-])cc1)S(=O)(=O)c1ccc(NC(=O)NS(=O)(=O)c2ccc(Cl)cc2)cc1)NO", "Matrix metalloproteinase-9 (Homo sapiens, UniProt P14780)", 9.00],
  ["Cc1ccc(S(=O)(=O)NC(=O)Nc2ccc(S(=O)(=O)N(CC(=O)O)Cc3ccc([N+](=O)[O-])cc3)cc2)cc1", "Matrix metalloproteinase-9 (Homo sapiens, UniProt P14780)", 7.60],
  ["O=C(CN(Cc1ccc([N+](=O)[O-])cc1)S(=O)(=O)c1ccc(NC(=O)NS(=O)(=O)c2ccc(F)cc2)cc1)NO", "Matrix metalloproteinase-9 (Homo sapiens, UniProt P14780)", 8.92],
  ["O=C(CN(Cc1ccc([N+](=O)[O-])cc1)S(=O)(=O)c1ccc([N+](=O)[O-])cc1)NO", "Matrix metalloproteinase-9 (Homo sapiens, UniProt P14780)", 8.10],
  ["O=C(CN(Cc1ccc([N+](=O)[O-])cc1)Sc1ccc([N+](=O)[O-])cc1)NO", "Matrix metalloproteinase-9 (Homo sapiens, UniProt P14780)", 7.96],
  ["Cc1ccc(S(=O)(=O)N(CC(=O)NO)Cc2ccc([N+](=O)[O-])cc2)cc1", "Matrix metalloproteinase-9 (Homo sapiens, UniProt P14780)", 7.57],
  ["O=C(CN(Cc1ccc([N+](=O)[O-])cc1)C(=O)Nc1ccc(Cl)c(Cl)c1)NO", "Matrix metalloproteinase-9 (Homo sapiens, UniProt P14780)", 8.15],
  ["O=C(CN(Cc1ccc([N+](=O)[O-])cc1)S(=O)(=O)C(Cl)(Cl)Cl)NO", "Matrix metalloproteinase-9 (Homo sapiens, UniProt P14780)", 7.60],
  ["CC(C)(C)OC(=O)Nc1ccc(S(=O)(=O)N(CC(=O)NO)Cc2ccc([N+](=O)[O-])cc2)cc1", "Matrix metalloproteinase-9 (Homo sapiens, UniProt P14780)", 8.00],
  ["O=C(CN(Cc1ccc([N+](=O)[O-])cc1)S(=O)(=O)c1cccc(C(F)(F)F)c1)NO", "Matrix metalloproteinase-9 (Homo sapiens, UniProt P14780)", 9.10]
]}

----------
biological target: 72 kDa type IV collagenase (Homo sapiens)
Sequence (P08253 whole entry): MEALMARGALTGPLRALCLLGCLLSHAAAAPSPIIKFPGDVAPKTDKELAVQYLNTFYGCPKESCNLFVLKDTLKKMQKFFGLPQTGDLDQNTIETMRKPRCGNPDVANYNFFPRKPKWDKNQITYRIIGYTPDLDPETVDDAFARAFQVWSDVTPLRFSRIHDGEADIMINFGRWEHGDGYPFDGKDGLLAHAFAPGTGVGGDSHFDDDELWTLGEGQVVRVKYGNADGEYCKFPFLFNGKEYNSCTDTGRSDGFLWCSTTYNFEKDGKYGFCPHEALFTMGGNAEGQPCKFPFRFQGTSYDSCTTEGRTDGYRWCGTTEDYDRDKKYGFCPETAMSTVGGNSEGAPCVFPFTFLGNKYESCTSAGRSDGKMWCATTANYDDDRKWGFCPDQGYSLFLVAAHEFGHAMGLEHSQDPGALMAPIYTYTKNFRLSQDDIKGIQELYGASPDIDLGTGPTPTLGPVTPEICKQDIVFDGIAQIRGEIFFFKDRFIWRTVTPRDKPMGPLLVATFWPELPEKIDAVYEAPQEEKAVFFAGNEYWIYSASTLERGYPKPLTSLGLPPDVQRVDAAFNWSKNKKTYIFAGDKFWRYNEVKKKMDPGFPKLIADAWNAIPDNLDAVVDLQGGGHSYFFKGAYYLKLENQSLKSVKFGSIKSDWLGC
pKi: −log10 of the molar value.
Classify as follows. Reported pKi greater than or equal to 8: TRUE. Reported pKi below: FALSE.

{"columns": ["CHEMICAL STRING", "ASSIGNED LABEL"],
 "data": [
  ["O=C(CN(Cc1ccc([N+](=O)[O-])cc1)C(=S)NC(=O)c1ccccc1)NO", "TRUE"],
  ["CS(=O)(=O)N(CC(=O)NO)Cc1ccc([N+](=O)[O-])cc1", "FALSE"],
  ["O=C(CN(Cc1ccc([N+](=O)[O-])cc1)S(=O)(=O)c1cccc(C(F)(F)F)c1)NO", "TRUE"],
  ["O=C(CN(Cc1ccc([N+](=O)[O-])cc1)S(=O)(=O)C(F)(F)C(F)(F)C(F)(F)C(F)(F)C(F)(F)C(F)(F)C(F)(F)C(F)(F)F)NO", "TRUE"],
  ["Cc1ccccc1S(=O)(=O)NC(=O)Nc1ccc(S(=O)(=O)N(CC(=O)NO)Cc2ccc([N+](=O)[O-])cc2)cc1", "TRUE"],
  ["O=C(CN(Cc1ccc([N+](=O)[O-])cc1)S(=O)(=O)c1ccc(C(=O)O)cc1)NO", "TRUE"],
  ["O=C(CN(Cc1ccc([N+](=O)[O-])cc1)C(=O)Nc1cccc2ccccc12)NO", "FALSE"],
  ["Cc1ccc(S(=O)(=O)NC(=O)Nc2ccc(S(=O)(=O)N(CC(=O)O)Cc3ccc([N+](=O)[O-])cc3)cc2)cc1", "FALSE"],
  ["O=C(CN(Cc1ccc([N+](=O)[O-])cc1)C(=O)NS(=O)(=O)c1ccccc1)NO", "TRUE"],
  ["Cc1ccc(S(=O)(=O)NC(=O)Nc2cccc(S(=O)(=O)N(CC(=O)NO)Cc3ccc([N+](=O)[O-])cc3)c2)cc1", "TRUE"]
]}
